Assay: solvent given as SMILES
Details: in C1CCOC1
ENDPOINT_NAME: emission maximum (nm)

CC1=C(C#Cc2ccc(N(c3ccccc3)c3ccccc3)cc2)C(C)=[N+]2C1=C(c1ccccc1)c1c(C)c(C#Cc3ccc(N(c4ccccc4)c4ccccc4)cc3)c(C)n1[B-]2(F)F ... 659
COc1ccc(-c2nc3c(c4c2-c2ccc(C#N)cc2CC4)-c2ccc(C#N)cc2CC3)cc1 ... 426
Cc1ccc2c(CC(=O)NN)coc2c1 ... 400
C(=C\c1cc2ccccc2c2ccccc12)/c1cc2ccccc2c2ccccc12 ... 416
CNc1ccc(/C=C/C#N)cc1 ... 419

====

Assay: solvent given as SMILES
Conditions: in ClC(Cl)Cl
ENDPOINT_NAME: emission maximum (nm)

Cc1ccc(/C2=c3\cc/c(o3)=C(\c3ccc(C)cc3)c3ccc([nH]3)-c3ccc4n3[B-](F)(F)[N+]3=C(C=CC3=C4c3ccco3)c3ccc2[nH]3)cc1 ... 731
C=C[Si](c1c2ccccc2cc2ccccc12)(c1c2ccccc2cc2ccccc12)c1c2ccccc2cc2ccccc12 ... 437
CSc1ccc2cc(C#N)c3ccc4ccccc4c3c2c1 ... 403
COc1ccc2c(-c3nc(-c4ccccc4F)no3)cc(=O)oc2c1 ... 453
O=C1/C(=C\c2ccc3oc4ccccc4c3c2)S(=O)(=O)c2ccccc21 ... 441
CCCCCCn1c2cc(/C=C(\C#N)c3cccs3)ccc2c2ccc(/C=C(\C#N)c3cccs3)cc21 ... 469.48
COc1cccc(-n2c(-c3ccccc3)nc(C)c2C)c1 ... 366
CC(C)c1cccc(C(C)C)c1-n1c(=O)c2ccc3c4ccc5c(=O)n(-c6c(C(C)C)cccc6C(C)C)c(=O)c6cc7c(-c8ccccn8)nc8cc(c1=O)c2c3c8c7c4c56 ... 485
Cc1ccccc1/C(C#N)=C/c1ccc(N(C)C)cc1 ... 481
